Items are presented alongside their recorded Ki.
biological target: D(2) dopamine receptor (Homo sapiens); assay: Displacement of [3H]spiperone from human D2-long receptor expressed in CHO cell membranes
Sequence (P14416 whole entry): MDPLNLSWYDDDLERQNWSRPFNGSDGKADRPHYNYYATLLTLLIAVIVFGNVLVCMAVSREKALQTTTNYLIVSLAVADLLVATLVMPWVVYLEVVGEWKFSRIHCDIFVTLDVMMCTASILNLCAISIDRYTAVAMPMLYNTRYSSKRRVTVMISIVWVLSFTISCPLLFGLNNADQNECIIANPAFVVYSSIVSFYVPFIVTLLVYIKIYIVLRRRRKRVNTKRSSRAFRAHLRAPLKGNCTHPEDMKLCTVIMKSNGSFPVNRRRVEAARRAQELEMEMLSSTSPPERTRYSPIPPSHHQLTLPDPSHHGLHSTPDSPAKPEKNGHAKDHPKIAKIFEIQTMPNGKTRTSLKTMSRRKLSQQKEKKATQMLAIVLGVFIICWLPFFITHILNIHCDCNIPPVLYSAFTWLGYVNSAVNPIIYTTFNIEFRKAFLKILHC
measurement-name: Ki (nM)

query-smiles: CC(C)(C)c1nc(N2CCN(CCCCNC(=O)c3cc4ccccn4n3)CC2)cc(C(F)(F)F)n1
quantitative-result: 430
//
query-smiles: CC(C)(C)c1nc(N2CCN(CCCCNC(=O)c3cc4ccccc4s3)CC2)cc(C(F)(F)F)n1
quantitative-result: 4000
//
query-smiles: O=C(NCCCCN1CC[N+]2(CCOc3ccccc32)CC1)c1cc2ccccn2n1
quantitative-result: 6300
//
query-smiles: O=C(NCCCCN1CCN(c2ccccc2OCCF)CC1)c1cc2ccccn2n1
quantitative-result: 39
